- System: Fibroblast
- Method Notes: Multiplex assay against human fibroblast
- Assay type: toxicity, cell-based
- Experimental Parameters: 24 h, 1 µM, compound concentration 1 uM, replicate 1
Threshold check on Population Healthy Nuclei (%): at or above 50% gives fulfilled, strictly below gives not fulfilled.

Field: example entries. Status: answers known.
Cc1nc(-c2ccc(-c3ccc(C(=O)N4CCc5cc6c(cc54)C4(CCN(C)CC4)CO6)cc3)c(C)c2)no1 [SB-224289] ... not fulfilled
c1cn2cc(-c3ccc4cn[nH]c4c3)nc(Nc3ccc(N4CCOCC4)cc3)c2n1 [ENTOSPLETINIB] ... fulfilled
CN1CCCC(n2nc(Cc3ccc(Cl)cc3)c3ccccc3c2=O)CC1.Cl (stereo unspecified) [AZELASTINE HYDROCHLORIDE] ... not fulfilled
C[C@@]1(C(=O)Nc2ccc(F)nc2)CCCN1c1nc(Nc2cc(C3CC3)n[nH]2)c2cccn2n1 [BMS-754807] ... fulfilled
CCN(CC)CCCCNc1ncc2cc(-c3cc(OC)cc(OC)c3)c(NC(=O)NC(C)(C)C)nc2n1 [PD-173074] ... not fulfilled
C=CC(=O)Nc1ccc2ncnc(Nc3ccc(OCc4cccc(F)c4)c(Cl)c3)c2c1.Cc1ccc(S(=O)(=O)O)cc1 ... not fulfilled

# check: Population Healthy Nuclei (%) of CC[C@H](C)C(=O)O[C@H]1C[C@@H](C)C=C2C=C[C@H](C)[C@H](CC[C@@H]3C[C@@H](O)CC(=O)O3)[C@H]21 [LOVASTATIN] is greater than or equal to 50%
not fulfilled

Record CNc1nc(NCc2ccc(NS(C)(=O)=O)cc2Cl)cc(-c2ccccn2)n1 ; criterion: Population Healthy Nuclei (%) no lower than 50%. Met?
fulfilled

Check if Population Healthy Nuclei (%) >= 50% (inclusive). Item: CN1CCN(CCOc2cc(OC3CCOCC3)c3c(Nc4c(Cl)ccc5c4OCO5)ncnc3c2)CC1 [SARACATINIB]
fulfilled

Quick check: does CN(C)C(=O)/C(C#N)=C/c1ccc(-c2nc3cnc4[nH]ccc4c3n2C2CCCCC2)o1 have Population Healthy Nuclei (%) greater than or equal to 50%?
not fulfilled

Please indicate if the recorded Population Healthy Nuclei (%) for CC(C)NCC(O)COc1ccc(CCOCC2CC2)cc1.Cl (stereo unspecified) [BETAXOLOL HYDROCHLORIDE] meets or exceeds 50%.
fulfilled

For this molecule, is measured Population Healthy Nuclei (%) 50% or higher? O=C1NCN(c2ccccc2)C12CCN(CCCOc1ccc(F)cc1)CC2 [SPIRAMIDE]
not fulfilled

###

- System: Fibroblast
- Method Notes: Multiplex assay against human fibroblast
- Type: toxicity, cell-based
- Experimental Parameters: 48 h, 1 µM, compound concentration 1 uM, replicate 1
The following molecules are shown together with reported Population Hoechst High Intensity Objects (%) values.
All answers are understood in %, so give the number only.

Record CN1CCC[C@@H]1CCO[C@](C)(c1ccccc1)c1ccc(Cl)cc1.O=C(O)/C=C/C(=O)O [CLEMASTINE FUMARATE] / Fibroblast, Population Hoechst High Intensity Objects (%) recorded as 27

Entry O=C1NCN(c2ccccc2)C12CCN(CCCOc1ccc(F)cc1)CC2 [SPIRAMIDE] , Fibroblast data, Population Hoechst High Intensity Objects (%) value: 14

Param item: CC(C)(O)CNc1ncc(-c2ccnc(Nc3ccnc(Cl)c3)n2)c(CC2CC2)n1 ; param system: Fibroblast; output Population Hoechst High Intensity Objects (%): 18

Record CN(C)C(=O)N[C@H]1CC[C@H](CCN2CCN(c3cccc(Cl)c3Cl)CC2)CC1.Cl [CARIPRAZINE HYDROCHLORIDE] ; system Fibroblast; Population Hoechst High Intensity Objects (%) = 7

###

- System: Fibroblast
- Method Notes: Multiplex assay against human fibroblast
- Type: toxicity, cell-based
- Experimental Parameters: 24 h, 10 µM, compound concentration 10 uM, replicate 1
We begin with a simple list: items and their reported Population Normal (%).

CN1CCN(CCOc2cc(OC3CCOCC3)c3c(Nc4c(Cl)ccc5c4OCO5)ncnc3c2)CC1 [SARACATINIB] ... 73%
COc1cc(-n2cnc3cc(-c4ccc(Cl)cc4)sc3c2=O)ccc1OCCN1CCCC1 ... 83%
C=CC(=O)Nc1cccc(C(=O)Nc2ccc(Nc3cc(-c4[nH]c(SC)nc4C)ccn3)cc2)c1 ... 86%
CN(C)C(=O)N[C@H]1CC[C@H](CCN2CCN(c3cccc(Cl)c3Cl)CC2)CC1.Cl [CARIPRAZINE HYDROCHLORIDE] ... 81%
c1cn2cc(-c3ccc4cn[nH]c4c3)nc(Nc3ccc(N4CCOCC4)cc3)c2n1 [ENTOSPLETINIB] ... 55%

// sample Cn1cc(-c2[nH]c3cc(NC(=O)[C@H](N)C4CCCCC4)cc4c3c2C=NNC4=O)cn1 , its Population Normal (%) was 76%

Data point: Cc1c(-c2ccc(O)cc2)n(Cc2ccc(OCCN3CCCCCC3)cc2)c2ccc(O)cc12 [BAZEDOXIFENE] ; Population Normal (%) = 76%

Given item Cl.N#Cc1ccc2[nH]cc(CCCCN3CCN(c4ccc5oc(C(N)=O)cc5c4)CC3)c2c1 [VILAZODONE HYDROCHLORIDE] , the value recorded as its Population Normal (%) is 64%

The reported value for COc1cc2nccc(Oc3ccc(NC(=O)Nc4cc(C)on4)c(Cl)c3)c2cc1OC.O in terms of Population Normal (%) is 80%

Recorded result, CC[C@H](C)C(=O)O[C@H]1C[C@@H](C)C=C2C=C[C@H](C)[C@H](CC[C@@H]3C[C@@H](O)CC(=O)O3)[C@H]21 [LOVASTATIN] , Population Normal (%): 85%

Notebook: COc1ncc(-c2ccc3nccc(-c4ccnnc4)c3c2)cc1NS(=O)(=O)c1ccc(F)cc1F [OMIPALISIB] , Population Normal (%) read as 79%

###

- System: HEK-293T
- Method Notes: Multiplex assay against HEK293T
- Type: toxicity, cell-based
- Experimental Parameters: human, 48 h, 1 µM, compound concentration 1 uM, replicate 2
Measured Metric: Total Cell Count
Just the number, please.

C=CC(=O)Nc1ccc2ncnc(Nc3ccc(OCc4cccc(F)c4)c(Cl)c3)c2c1.Cc1ccc(S(=O)(=O)O)cc1 ... 512

Entry COc1cccc([C@@H](C)NCCCc2ccccc2Cl)c1.Cl [TECALCET HYDROCHLORIDE] ; Total Cell Count = 383

get_value(item= Cc1c(-c2ccc(O)cc2)n(Cc2ccc(OCCN3CCCCCC3)cc2)c2ccc(O)cc12 , readout=Total Cell Count) returns 314

The compound listed as C[C@@H](NCCCc1cccc(C(F)(F)F)c1)c1cccc2ccccc12.Cl [CINACALCET HYDROCHLORIDE] has a reported Total Cell Count of 266

Record Cc1nc(-c2ccc(-c3ccc(C(=O)N4CCc5cc6c(cc54)C4(CCN(C)CC4)CO6)cc3)c(C)c2)no1 , field Total Cell Count: 371

Lab note: measured Total Cell Count of CN1CCN(c2ccc(OC(F)(F)F)c(Nc3ncc4c(n3)-c3c(c(C(N)=O)nn3CCO)CC4)c2)CC1 was 118

# Total Cell Count (compound: CN(C)C(=O)N[C@H]1CC[C@H](CCN2CCN(c3cccc(Cl)c3Cl)CC2)CC1.Cl [CARIPRAZINE HYDROCHLORIDE] ) is 516

###

- Test system: Fibroblast
- Method Notes: Multiplex assay against human fibroblast
- Format: toxicity, cell-based
- Experimental Parameters: 24 h, 1 µM, compound concentration 1 uM, replicate 1
Measured Metric: Population Normal (%)

Cc1c(-c2ccc(O)cc2)n(Cc2ccc(OCCN3CCCCCC3)cc2)c2ccc(O)cc12 [BAZEDOXIFENE] ... 85%
NC(=O)Nc1cc(-c2cccc(F)c2)sc1C(=O)N[C@H]1CCCNC1 [AZD-7762] ... 85%
Cl.N#Cc1ccc2[nH]cc(CCCCN3CCN(c4ccc5oc(C(N)=O)cc5c4)CC3)c2c1 [VILAZODONE HYDROCHLORIDE] ... 74%
C[C@@H](NCCCc1cccc(C(F)(F)F)c1)c1cccc2ccccc12.Cl [CINACALCET HYDROCHLORIDE] ... 84%

response.value for Cc1cc(C)cc(-c2cnc3cc(Cl)c(-c4cccc(O)c4)cc3c2OCCCN)c1 (field: Population Normal (%)) = 78%

The measured Population Normal (%) associated with Cc1nc(-c2cn3c(n2)-c2ccc(-c4cnn(C(C)(C)C(N)=O)c4)cc2OCC3)n(C(C)C)n1 [TASELISIB] reads 85%

CN(C)C(=O)/C(C#N)=C/c1ccc(-c2nc3cnc4[nH]ccc4c3n2C2CCCCC2)o1 yielded Population Normal (%) of 85%

response.value for c1cn2cc(-c3ccc4cn[nH]c4c3)nc(Nc3ccc(N4CCOCC4)cc3)c2n1 [ENTOSPLETINIB] (field: Population Normal (%)) = 88%
